- TEST: LNP size and polydispersity index (PDI) by dynamic light scattering (Zetasizer)
- Format: physicochemical
- CONDITION LABEL: Formulation No. 001 (Ionizable lipid:DSPC:cholesterol:DMG-PEG2000 = 50:10:38.5:1.5, N/P 6), RNA No. 331
PROPERTY NAME: Size (nm)

CCCCCCCCCCCOC(=O)NC(COC(=O)NCCN(C)C)C(=O)OCCCCCCCC(=O)OC(CCCCCCCC)CCCCCCCC (stereo not shown) [Lipid 912]
74.18
CCCCCCCCCC(=O)OCCCCCCCOC(=O)C(COC(=O)NCCN1CCCCCC1)NC(=O)OCCCCCCCCOC(=O)C(CCCCCC)CCCCCCCC (stereo not shown) [Lipid 934]
70.72
CCCCC/C=C\C/C=C\CCCCCCCCOC(=O)NC(COC(=O)NCCN1CCCCCC1)C(=O)OCCCCCC(=O)OCC(CCCCCCCC)CCCCCCCCCC (stereo not shown) [Lipid 911]
64.33
CCCCC/C=C\C/C=C\CCCCCCCCOC(=O)C(COC(=O)NCCN1CCCCC1)NC(=O)OCCCCCCCCOC(=O)C(CCCCCC)CCCCCCCC (stereo not shown) [Lipid 918]
69.23
CCCCC/C=C\C/C=C\CCCCCCCCOC(=O)NC(COC(=O)NCCNC)C(=O)OCCCCCC(=O)OCC(CCCCCCCC)CCCCCCCCCC (stereo not shown) [Lipid 907]
83.82

[P] CCCCCCCCCCCOC(=O)NC(COC(=O)NCCN1CCCCC1)C(=O)OCCCCCCCC(=O)OC(CCCCCCCC)CCCCCCCC (stereo not shown) [Lipid 914]
[Q] CCCCC/C=C\C/C=C\CCCCCCCCOC(=O)NC(COC(=O)NCCN1CCCCCC1)C(=O)OCCCCCC(=O)OCCCCCCCCCCC (stereo not shown) [Lipid 939]
## Input Larger number for Size (nm): P , or Q ? Select an item and report its label.
## Output Q
